Values were extracted from patent USRE46585.

# assayedTarget: T1, recombinant soluble human FcRn (human, UniProt P55899 24-297; P61769 21-119)
# T1 construct: amine-coupled to the SPR chip
# T1 sequence (P55899 24-297, chain 1 of 2): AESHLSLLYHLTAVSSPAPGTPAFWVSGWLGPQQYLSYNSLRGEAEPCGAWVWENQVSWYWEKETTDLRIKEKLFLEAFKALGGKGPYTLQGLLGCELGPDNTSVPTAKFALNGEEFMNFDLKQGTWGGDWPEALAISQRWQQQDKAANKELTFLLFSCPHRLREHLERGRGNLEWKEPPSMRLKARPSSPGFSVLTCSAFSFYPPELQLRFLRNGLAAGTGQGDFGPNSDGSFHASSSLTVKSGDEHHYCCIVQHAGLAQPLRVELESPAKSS
# T1 sequence (P61769 21-119, chain 2 of 2): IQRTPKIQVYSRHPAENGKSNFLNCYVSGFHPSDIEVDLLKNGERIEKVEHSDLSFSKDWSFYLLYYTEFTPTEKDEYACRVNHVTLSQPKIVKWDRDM
# assayComment: SPR pH6, immobilized FcRn, steady state
parameter: Kd (nM)
// return numeric value only (unit: nM, not printed)

{"columns": ["binder", "parameter", "valueReported"],
 "data": [
  ["C6A_69 (soluble recombinant Fc polypeptide) (other, EU numbering; E. coli periplasmic expression; not shown: C-terminal 6xHis tag and V5 tag) CPPCPAPELLGGPSVFLFPPKPKDTLMISRTPEVTCVVVDVSHEDPEVKFNWYVDGVEVHNAKTKPREEQYNSTYRVVSVLAVLHQDWLDGKEYKCKVSNKALPVPIEKTISKAKGQPREPQVYTLPPSRDELTKNQVSLTCLVKGFYPSDIAVEWVSNGQPETNYKTTPPVLDSDGSFFLYSKLTVDKSRWQQGNVFSCSVMHEALHYHYTQKSLSLSPGK", "Kd", 7.2]
]}

Task item: Please report Kd for the following binder: T5A_81 (soluble recombinant Fc polypeptide) (other, EU numbering; E. coli periplasmic expression; not shown: C-terminal 6xHis tag and V5 tag) CPPCPAPELLGGPSVFLFPPKPKDTLMISRTPEVTCVVEDVSHEDPEVKFNWYVDGVEVHNAKTKPREEQYNSTYRVVSVLTVLHQDWLNGKEYKCKVSNKALPAPIEKTISKAKGQPREPQVYTLPPSRDELTKNQVSLTCLVKGFYPSDIVVEWESNGQPENNYKTTPPVLDSDGSFFLYSKLTVDKSKWQQGNVFSCSVMHEALHNHYTQKSLSLSPGK
Reply: 22.7

Task item: Determine from records and report Kd for T5A_94 (soluble recombinant Fc polypeptide) (other, EU numbering; E. coli periplasmic expression; not shown: C-terminal 6xHis tag and V5 tag) CPPCPAPELLGGPSVFLFPPKPKDTLMISRTPEVTCVVEDVSHEDPEVKFNWYVDGVEVHNAKTKPREEQYNSTYRVVSVLTVLHQDWLNGKEYKCKVSNKALPAPIEKTISKAKGQPREPQVYTLPPSRDELTKNQVSLTCLVKGFYPSDITVEWESNGQPENNYKTTPLVLDSDGSFFLYSKLTVDKSRWQQGNVFSCSVMHEALHNHYTQKSLSLSPGK
Reply: 13.7

Task item: Supply Kd value. Item: T5A_58 (soluble recombinant Fc polypeptide) (other, EU numbering; E. coli periplasmic expression; not shown: C-terminal 6xHis tag and V5 tag) CPPCPAPELLGGPSVLLFPPKPKDTLMISRTPEVTCVVEDVSHEDPEVKFNWYVDGVEVHNAKTKPREEQYNSTYRVVSVLPVLHQDWLNGKEYKCKVSNKALPAPIEKTISKAKGQPREPQVYTLPPSRDELTKNQVSLTCLVKGFYPSDIVVEWESNGQPENNYKTTPPVLDSDGSFFLYSKLTVDKSRWQQGNVFSCSVMHEALRNHYTQKSLSLSPGK
Reply: 15.4
